- system_name: rDIII (West Nile virus)
- Construct: rDIII – recombinant domain III; made in house; host or cells: E. coli M15
- Sequence (P06935 584-692 limits assumed): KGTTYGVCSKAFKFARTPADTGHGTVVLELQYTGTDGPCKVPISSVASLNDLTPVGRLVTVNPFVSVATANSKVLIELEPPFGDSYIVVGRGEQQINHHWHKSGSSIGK
- experimental_details: ELISA of the binding of 7-mer cyclic and 12-mer linear peptides to rDIII
- run_conditions: peptides coated through C-terminus in CovaLink NH plates; 1 µg rDIII; HisProbe-HRP; negative control subtracted
Positions of bridges follow the written chain, without caps; N, C: chain ends. No end group written: not given here.
sequences and their reported A450, ELISA of peptide binding to rDIII

Worked cases, answers included:
[[record]]
monomer_sequence = "CMQTQRAHC (ACMQTQRAHCGGGS; disulfide 2-10 (inferred)) [CP6]"
metric_name = "A450, ELISA of peptide binding to rDIII"
value_measured = "> 1.5"

[[record]]
monomer_sequence = "CDPRHSKFC (ACDPRHSKFCGGGS; disulfide 2-10 (inferred)) [CP15]"
metric_name = "A450, ELISA of peptide binding to rDIII"
value_measured = "> 1.5"

[[record]]
monomer_sequence = "HYSWSWIAYSPG (HYSWSWIAYSPGGGGS; left off: His6, N-terminal, cleaved | 28 aa tag, N-terminal, cleaved) [LP19]"
metric_name = "A450, ELISA of peptide binding to rDIII"
value_measured = 0.082


Ask: Return A450, ELISA of peptide binding to rDIII for the following sequence: CTNANHYFC (ACTNANHYFCGGGS; disulfide 2-10 (inferred)) [CP7]
Result: > 1.5

meta.source: paper PMC8505397
